target: human glucagon receptor (human) (UniProt P47871); test: cell-based or functional assay
Sequence (P47871 26-477): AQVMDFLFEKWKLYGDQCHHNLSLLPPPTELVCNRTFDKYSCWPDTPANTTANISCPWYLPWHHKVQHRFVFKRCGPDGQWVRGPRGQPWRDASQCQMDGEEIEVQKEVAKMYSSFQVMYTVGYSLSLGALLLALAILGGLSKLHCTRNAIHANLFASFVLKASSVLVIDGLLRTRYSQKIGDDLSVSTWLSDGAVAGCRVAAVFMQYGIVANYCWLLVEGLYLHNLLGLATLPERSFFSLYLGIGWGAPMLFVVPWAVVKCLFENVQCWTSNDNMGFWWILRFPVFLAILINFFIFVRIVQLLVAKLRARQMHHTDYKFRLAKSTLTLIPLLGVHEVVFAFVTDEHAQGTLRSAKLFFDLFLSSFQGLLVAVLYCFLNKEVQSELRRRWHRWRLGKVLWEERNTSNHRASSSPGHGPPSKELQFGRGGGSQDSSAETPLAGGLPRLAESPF
Starred links: 1 amine or outer side, 2 acyl side, 3 side chain; linkers in the order of their positions; H or OH if unused. Non-standard residues stand in square brackets, D forms with d. Groups on a side chain read outwards from the residue. No end group written: not given here. *: point of attachment. C20 diacid = O=C(O)CCCCCCCCCCCCCCCCCCC(=O)*; γGlu = O=C(O)[C@H](CCC(=O)[*:2])N[*:1]; αMeL = CC(C)C[C@](C)(N)C(=O)O; Orn = NCCC[C@H](N)C(=O)O; AEEA = NCCOCCOCC(=O)O; Aib = CC(C)(N)C(=O)O
Measurement type: Relative cAMP EC50

Task: For the binder YXQGTXTSDXXIXLDXKAQXEFIEXLVEGGPSSGEPPPTGE (not fully specified; Aib, αMeF(2F), 4Pal, αMeS, Orn, Me4Pal, αMeY; acylated; amide; synthetic construct; SITE 2: note = 2-Aminoisobutyric Acid; SITE 6: note = alpha-methyl-2-fluoro-L-phenylalanine; SITE 10: note = 3-(4-Pyridyl)-L-alanine; SITE 11: note = alpha-methyl-L-serine; SITE 13: note = alpha-methyl-leucine; SITE 16: note = L-ornithine; SITE 17: note = Lysine is chemically mo) [Example 1153] , what Relative cAMP EC50 is on record?
Result: 2.69 nM

Task: For the binder HXQGTXTSDYSILLDKKAAXAFIEYLIETGPSSGEPPPSEG (not fully specified; synthetic construct; SITE 2: note = 2-Aminoisobutyric Acid; SITE 6: note = alpha-methyl-2-fluoro-L-phenylalanine; SITE 17: note = Lysine is chemically modified through conjugation of the epsilon-amino group of the Lysine side chain with (2-[2-(2-Amino-ethoxy)-ethoxy]-acetyl)-(gamma-Glu)-CO-(CH2) 18-) [Example 290] , what Relative cAMP EC50 is on record?
Result: 2.68 nM

Task: For the binder Y[Aib]QGTFTSDYSI[αMeL]LDKIAAK([AEEA-AEEA-γGlu-C20 diacid])[Orn]FVQYLIAGGPSSGEPPPSEG-NH2 (ends and bridges not checked) [Example 308] , what Relative cAMP EC50 is on record?
Result: 14.2 nM
